// data source = ChEMBL document CHEMBL2311335

Tested on: MCF7
Assay: Estrogenic activity in human MCF7 cells assessed as cell proliferation after 7 days by WST-8 assay
Format: functional, cell-based
Details: Homo sapiens, MCF7, 168 h
quantity.kind: EC50
Field note: include the unit after the figure.

## Input Supply EC50 value. Item: C[Si](C)(C)c1ccc(O)cc1
## Output 63 nM

## Input Please give measured EC50 of the following entry: CC(C)(C)c1ccc(O)cc1
## Output 870 nM

## Input Respond only with EC50 recorded for C[Si](C)(c1ccccc1)c1ccc(O)cc1
## Output 16 nM

# evaluate next
## Input Return EC50 for the following compound: CCC(C)(C)c1ccc(O)cc1
## Output 190 nM

----------
pEC50 values for the molecules below.
Test system: MCF7
Test: Estrogenic activity in human MCF7 cells assessed as cell proliferation after 7 days by WST-8 assay
Type: functional, cell-based
Details: Homo sapiens, MCF7, 168 h
Please report pEC50 as the negative decimal logarithm of the molar concentration, giving only the number.

Worked examples, 3 molecules total:
## Input Hello, please tell me recorded pEC50 for this one: CC[Si](CC)(CC)c1ccc(O)cc1
## Output 8.47

## Input Tell me its pEC50 given CC[Si](C)(C)c1ccc(O)cc1 as the entry.
## Output 7.39

## Input Report pEC50, nothing else, for this molecule: CCC(CC)(CC)c1ccc(O)cc1
## Output 7.64

Lab note: next molecule to report on.
## Input Quote pEC50 reported for CC(C)(c1ccccc1)c1ccc(O)cc1 please.
## Output 7.42
